Data provenance: the supplement of paper PMC10126150

Test system: ATP;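 also: ATP exposure 15 min at 22 °C before imaging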
assayMethodText: switch fluorescence ratio, 500 uM ATP over buffer (Cy3 cluster intensity, sum of 5 cycles each) (fold (ratio)); higher = stronger signal-on switching upon ATP binding; sequences stand for … in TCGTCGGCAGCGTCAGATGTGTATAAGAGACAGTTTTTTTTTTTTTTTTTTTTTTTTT…TC
testParameters: aptamer strand: ATP DNA aptamer (quencher-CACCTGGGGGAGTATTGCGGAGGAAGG + anchor), 100 nM annealed; ATP concentration: 500 uM
valueType: switch fluorescence ratio
Respond numerically, and do not add a unit to the figure.

Entry GTGTCCTTGG : reported switch fluorescence ratio = ?
1.01

Entry ACAGGGCCGT : reported switch fluorescence ratio = ?
1.03

Entry TGGGCGGTGT : reported switch fluorescence ratio = ?
0.992

Entry TATATTTAGC : reported switch fluorescence ratio = ?
1

Entry AAGCAGCCGG : reported switch fluorescence ratio = ?
0.99

Entry ACAGGGTAGC : reported switch fluorescence ratio = ?
1

Entry AAAACATAGC : reported switch fluorescence ratio = ?
0.965

Entry TCACGAGGCT : reported switch fluorescence ratio = ?
1.04

Entry AAAAAACCTA : reported switch fluorescence ratio = ?
1.06

Entry AAAAATCTGG : reported switch fluorescence ratio = ?
1.45

Entry GAGAATCCGG : reported switch fluorescence ratio = ?
1

Entry AGAACGTTCT : reported switch fluorescence ratio = ?
0.985

Entry AGTAGGGTCC : reported switch fluorescence ratio = ?
1.03

Entry ACACGTTACA : reported switch fluorescence ratio = ?
1.62

Entry GAATCAATGG : reported switch fluorescence ratio = ?
1.03

Entry TGGGCATATG : reported switch fluorescence ratio = ?
0.993

Entry CGGGGGAGAA : reported switch fluorescence ratio = ?
1

Entry CTTTTCTTCA : reported switch fluorescence ratio = ?
1.01

Entry AGGTGTTTAA : reported switch fluorescence ratio = ?
1.03

Entry AAGGGGTAGG : reported switch fluorescence ratio = ?
0.986

Entry GGGTTTGAAG : reported switch fluorescence ratio = ?
1

Entry AACTGGTTG : reported switch fluorescence ratio = ?
0.98

Entry CGTCATTAAA : reported switch fluorescence ratio = ?
0.984

Entry TCGGTGGGTA : reported switch fluorescence ratio = ?
0.983

Entry GTTGTGTATT : reported switch fluorescence ratio = ?
0.998

Entry AGGGCTAATA : reported switch fluorescence ratio = ?
1.01

Entry GTTGAGAGTT : reported switch fluorescence ratio = ?
1.01

Entry CGAGTGGCGA : reported switch fluorescence ratio = ?
1.08

Entry TTGCTTTGTG : reported switch fluorescence ratio = ?
1

Entry AGTGCTGTGC : reported switch fluorescence ratio = ?
0.997

Entry CGGGGGATTG : reported switch fluorescence ratio = ?
0.988

Entry GAGGCAGGGT : reported switch fluorescence ratio = ?
1.03

Entry GGCGGGTGGG : reported switch fluorescence ratio = ?
1.03

Entry TTTGAGATAG : reported switch fluorescence ratio = ?
1.02

Entry TTTAACGATA : reported switch fluorescence ratio = ?
1.07

Entry GGGGATACAG : reported switch fluorescence ratio = ?
0.995

Entry AGATTAGTAT : reported switch fluorescence ratio = ?
1.02

Entry TTTATTGCGG : reported switch fluorescence ratio = ?
1.01

Entry GAGGAGGTAT : reported switch fluorescence ratio = ?
0.973

Entry AGAATGAGTG : reported switch fluorescence ratio = ?
1.03

Entry GCGAACGCGC : reported switch fluorescence ratio = ?
1.27

Entry GCGAAAAGGG : reported switch fluorescence ratio = ?
1.02

Entry AATTGATAAA : reported switch fluorescence ratio = ?
0.984

Entry GTACGAGGGG : reported switch fluorescence ratio = ?
0.992

Entry TGTAGTAGCG : reported switch fluorescence ratio = ?
0.99

Entry AAGGGATGCT : reported switch fluorescence ratio = ?
1

Entry ATTTTTTTTT : reported switch fluorescence ratio = ?
1

Entry AGACAGGGAC : reported switch fluorescence ratio = ?
1.04

Entry CACGAAGGGT : reported switch fluorescence ratio = ?
1.02

Entry GGCTCTGAGG : reported switch fluorescence ratio = ?
0.972

Entry CGCTTATATC : reported switch fluorescence ratio = ?
2.8

Entry GCTATCGGGA : reported switch fluorescence ratio = ?
1.01

Entry TCGGATTGGG : reported switch fluorescence ratio = ?
0.993

Entry TGTGTGAGT : reported switch fluorescence ratio = ?
0.964

Entry TTTTGAATTT : reported switch fluorescence ratio = ?
0.996

Entry TTTAGCAGCT : reported switch fluorescence ratio = ?
0.993

Entry CGGTATGGGG : reported switch fluorescence ratio = ?
1

Entry GGGATTGGAT : reported switch fluorescence ratio = ?
0.967

Entry GTGGGGTTGT : reported switch fluorescence ratio = ?
0.973

Entry GGGGTTTGGG : reported switch fluorescence ratio = ?
0.974

Entry AACGGGGGA : reported switch fluorescence ratio = ?
0.992

Entry TCTAGGTAGA : reported switch fluorescence ratio = ?
0.993

Entry TTCTTGTGTG : reported switch fluorescence ratio = ?
1

Entry GTTTCCATGG : reported switch fluorescence ratio = ?
0.973

Entry CGTTTGTCGG : reported switch fluorescence ratio = ?
1.01

Entry TAGTAGATTA : reported switch fluorescence ratio = ?
0.982

Entry ATTGGGGGAC : reported switch fluorescence ratio = ?
0.98

Entry CAATGTAGGG : reported switch fluorescence ratio = ?
1

Entry GCAGAATTTG : reported switch fluorescence ratio = ?
1.02

Entry AAATTTAGTA : reported switch fluorescence ratio = ?
0.99

Entry ATATGCGGCG : reported switch fluorescence ratio = ?
1.02

Entry TCGGTTGAGG : reported switch fluorescence ratio = ?
0.983

Entry GGTCCCATCG : reported switch fluorescence ratio = ?
0.985

Entry GGTAAATAAG : reported switch fluorescence ratio = ?
0.961

Entry CGTTGTTGGT : reported switch fluorescence ratio = ?
1.01

Entry TTTCTTCCCT : reported switch fluorescence ratio = ?
1.13

Entry CCTCATTCGG : reported switch fluorescence ratio = ?
1.06

Entry GCGCGTTTTT : reported switch fluorescence ratio = ?
1

Entry AAATAAACGC : reported switch fluorescence ratio = ?
1.02

Entry CGCTCAAGGG : reported switch fluorescence ratio = ?
1.03

Entry TTTGCTACGT : reported switch fluorescence ratio = ?
1.01

Entry TTCTGGGGGC : reported switch fluorescence ratio = ?
1.05

Entry GATTTACATA : reported switch fluorescence ratio = ?
1.01

Entry CGTCGGCGCC : reported switch fluorescence ratio = ?
1.09

Entry GATTGGGTCC : reported switch fluorescence ratio = ?
1

Entry TCCGGCGGTT : reported switch fluorescence ratio = ?
1.01
